Test system: LN-229
Test: Anticancer screening, MTS cell proliferation assay, 72 h
Type: cell-based
Details: Homo sapiens, LN-229, 72 h
Structures can show the parent of a compound that is named as a salt.
Collected GI50 values appear next to each entry.
Measurement Name: GI50 (µM)

compound="OC(c1cc(C(F)(F)F)nc2c(C(F)(F)F)cccc12)C1CCCCN1 (stereo not drawn) [MQ, mefloquine hydrochloride, reference compound]" measurement_name=GI50 unit_abbrev=µM quantitative_result=0.1
compound=C=C(CC(=O)OC)C(=O)Nc1ccc(F)cc1 measurement_name=GI50 unit_abbrev=µM quantitative_result=8
compound=C=C(CC(=O)OC)C(=O)Nc1cccc(C(F)(F)F)c1 measurement_name=GI50 unit_abbrev=µM quantitative_result=4.4

Reference for the values: paper PMC7548052
